Data provenance: ChEMBL document CHEMBL1201862

Tested on: SK-MEL-5
Test: NCI tumour cell line growth inhibition, 48 h
Calls of active or inactive are those of the source. Rule as the data show it: active = GI50 up to about 1.1 µM and inactive = higher.
# reported GI50; entries follow

See these solved cases before continuing.
O=C1Nc2ccccc2/C1=C1\C(=O)Nc2ccccc21 [ISOINDIGO]: 59.7 µM (inactive)
CC(C)(CCC(C)(C)N1OC1c1ccccc1)N1OC1c1ccccc1 (stereo not given): 17.5 µM (inactive)
C(=N\Nc1nnc(-c2nnc(N/N=C/c3ccccc3)o2)o1)/c1ccccc1: > 10 µM (inactive)

Q. State its GI50: `CC(=O)N/N=C1\NC(=O)C[C@H]2[C@@H]3CC=C4C[C@@H](OC(C)=O)CC[C@]4(C)[C@H]3CC[C@]12C`
A. 50.8 µM (inactive)

Q. State its GI50: O=[N+]([O-])c1ccc(C2=NOC(c3ccccc3)N2C23CC4CC(CC(C4)C2)C3)cc1 (stereo not given)
A. 22.2 µM (inactive)
